ASSAYED_SYSTEM: full-length human Notch3 expressed on the cell surface (human, UniProt Q9UM47 40-2321)
Sequence (Q9UM47 40-2321): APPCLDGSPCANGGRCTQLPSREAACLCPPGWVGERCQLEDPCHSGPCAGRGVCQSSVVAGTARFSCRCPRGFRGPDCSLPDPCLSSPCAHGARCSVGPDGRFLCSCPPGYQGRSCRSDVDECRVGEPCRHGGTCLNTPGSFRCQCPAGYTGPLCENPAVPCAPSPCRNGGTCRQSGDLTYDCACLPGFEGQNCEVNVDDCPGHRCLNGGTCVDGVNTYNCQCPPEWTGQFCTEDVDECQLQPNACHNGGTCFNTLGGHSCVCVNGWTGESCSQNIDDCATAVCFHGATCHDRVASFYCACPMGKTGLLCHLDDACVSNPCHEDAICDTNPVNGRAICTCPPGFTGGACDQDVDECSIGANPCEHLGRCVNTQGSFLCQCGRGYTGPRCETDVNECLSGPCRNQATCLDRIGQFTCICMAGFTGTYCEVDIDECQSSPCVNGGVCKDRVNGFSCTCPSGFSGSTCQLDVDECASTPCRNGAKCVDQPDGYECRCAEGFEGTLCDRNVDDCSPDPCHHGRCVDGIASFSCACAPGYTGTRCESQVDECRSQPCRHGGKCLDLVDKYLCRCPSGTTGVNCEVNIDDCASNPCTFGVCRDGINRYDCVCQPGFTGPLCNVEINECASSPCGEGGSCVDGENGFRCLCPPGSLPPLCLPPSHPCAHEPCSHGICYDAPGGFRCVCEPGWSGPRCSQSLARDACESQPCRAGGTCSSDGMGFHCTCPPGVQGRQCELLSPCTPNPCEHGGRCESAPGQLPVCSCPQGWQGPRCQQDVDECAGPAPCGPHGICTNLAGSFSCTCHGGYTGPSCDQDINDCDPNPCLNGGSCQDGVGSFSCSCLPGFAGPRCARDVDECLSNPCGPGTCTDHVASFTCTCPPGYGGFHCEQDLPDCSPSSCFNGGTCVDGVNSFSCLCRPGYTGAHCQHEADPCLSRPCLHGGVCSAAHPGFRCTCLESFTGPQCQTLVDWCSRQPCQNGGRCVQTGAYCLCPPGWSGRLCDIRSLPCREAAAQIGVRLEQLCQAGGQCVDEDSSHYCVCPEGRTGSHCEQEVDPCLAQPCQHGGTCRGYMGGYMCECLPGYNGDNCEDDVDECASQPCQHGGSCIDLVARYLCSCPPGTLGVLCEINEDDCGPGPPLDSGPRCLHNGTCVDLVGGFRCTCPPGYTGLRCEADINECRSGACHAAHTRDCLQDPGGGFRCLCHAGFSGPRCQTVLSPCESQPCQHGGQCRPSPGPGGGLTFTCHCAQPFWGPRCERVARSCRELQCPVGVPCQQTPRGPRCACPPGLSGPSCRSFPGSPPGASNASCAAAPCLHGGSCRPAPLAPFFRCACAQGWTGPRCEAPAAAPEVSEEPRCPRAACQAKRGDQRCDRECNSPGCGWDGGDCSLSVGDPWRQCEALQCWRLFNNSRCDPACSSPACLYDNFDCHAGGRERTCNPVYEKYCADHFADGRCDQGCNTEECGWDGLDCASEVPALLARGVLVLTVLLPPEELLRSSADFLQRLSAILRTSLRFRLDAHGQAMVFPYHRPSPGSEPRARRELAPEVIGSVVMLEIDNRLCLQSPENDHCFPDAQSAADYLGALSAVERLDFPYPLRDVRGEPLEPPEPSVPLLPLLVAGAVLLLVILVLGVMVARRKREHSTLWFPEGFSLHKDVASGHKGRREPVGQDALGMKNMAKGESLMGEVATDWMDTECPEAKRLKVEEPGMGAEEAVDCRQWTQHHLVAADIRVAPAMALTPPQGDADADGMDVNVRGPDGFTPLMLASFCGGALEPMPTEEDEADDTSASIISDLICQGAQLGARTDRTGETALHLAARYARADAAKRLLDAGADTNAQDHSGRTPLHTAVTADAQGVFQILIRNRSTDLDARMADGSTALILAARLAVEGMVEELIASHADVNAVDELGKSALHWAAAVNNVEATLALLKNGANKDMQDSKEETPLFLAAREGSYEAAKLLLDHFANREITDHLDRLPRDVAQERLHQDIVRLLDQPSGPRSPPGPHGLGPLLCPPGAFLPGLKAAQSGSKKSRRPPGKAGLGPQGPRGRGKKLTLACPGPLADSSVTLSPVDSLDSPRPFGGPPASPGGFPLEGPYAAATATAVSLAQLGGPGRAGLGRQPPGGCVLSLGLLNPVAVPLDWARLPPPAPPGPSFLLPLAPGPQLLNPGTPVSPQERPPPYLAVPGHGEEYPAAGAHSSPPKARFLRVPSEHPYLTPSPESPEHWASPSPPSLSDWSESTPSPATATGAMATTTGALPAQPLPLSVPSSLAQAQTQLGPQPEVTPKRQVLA
MEASUREMENT_NOTES: cell-based or functional assay
OBSERVED_PROPERTY: IC50 of cytotoxicity (MTS viability), MDA-MB-468/hNotch3 cells, repeat 2 (ng Ab/mL)

{"columns": ["BINDER", "DISPLAY_UNIT", "NUMERIC_VALUE"],
 "data": [
  ["hu28-vc0101 (Notch3-28-v1010-hG1-(C)_mcValCitPABC-#54) (antibody, human IgG1, kappa, V domains shown, vc0101 linker-payload on cysteine residues after partial reduction; sites not specified, Antibody-drug conjugate of hu28) VH: EVQLVESGGGLVQPGGSLRLSCAASGFTFRDYGMTWVRQAPGKGLEWVAYISSGSNYIYYAEAVKGRFTISRDNAKNSLYLQMNSLRAEDTAVYYCARRGPFVLDAWGQGTLVTVSS VL: DIQMTQSPSSLSASVGDRVTITCKASQSINRYLHWYQQKPGKAPKLLIYNANGLQTGVPSRFSGSGSGTDFTLTISSLQPEDFATYYCLQHNTWPDTFGGGTKVEIKR", "ng Ab/mL", 3],
  ["hu75-vc0101 (Notch3-75-v1913-hG1-(C)_mcValCitPABC-#54) (antibody, human IgG1, kappa, V domains shown, vc0101 linker-payload on cysteine residues after partial reduction; sites not specified, Antibody-drug conjugate of hu75) VH: EVQLVESGGGLVQPGGSLRLSCAASGYAFTDYWMTWVRQAPGKGLEWVAEISPNSGGTNFNEKFKGRFTISVDNAKNSLYLQMNSLRAEDTAVYYCARGEIRYNWFAYWGQGTLVTVSS VL: DIQMTQSPSSLSASVGDRVTITCKASQNVGNNIAWYQQKPGKAPKLLIYYASNRYTGVPSRFSGSGYGTDFTLTISSLQPEDFATYYCQRLYNSPFTFGGGTKVEIKR", "ng Ab/mL", 36],
  ["hu28-vc6780 (Notch3-28-v1010-hG1-(C)_mcValCitPABC-#112) (antibody, human IgG1, kappa, V domains shown, vc6780 linker-payload on cysteine residues after partial reduction; sites not specified, Antibody-drug conjugate of hu28) VH: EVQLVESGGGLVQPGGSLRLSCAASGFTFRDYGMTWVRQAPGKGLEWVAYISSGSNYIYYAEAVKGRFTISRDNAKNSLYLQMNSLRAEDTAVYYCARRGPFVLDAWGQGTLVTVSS VL: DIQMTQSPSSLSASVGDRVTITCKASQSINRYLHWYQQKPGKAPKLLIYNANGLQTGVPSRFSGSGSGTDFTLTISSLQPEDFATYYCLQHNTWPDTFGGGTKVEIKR", "ng Ab/mL", 3],
  ["hu75-vc6780 (Notch3-75-v1913-hG1-(C)_mcValCitPABC-#112) (antibody, human IgG1, kappa, V domains shown, vc6780 linker-payload on cysteine residues after partial reduction; sites not specified, Antibody-drug conjugate of hu75) VH: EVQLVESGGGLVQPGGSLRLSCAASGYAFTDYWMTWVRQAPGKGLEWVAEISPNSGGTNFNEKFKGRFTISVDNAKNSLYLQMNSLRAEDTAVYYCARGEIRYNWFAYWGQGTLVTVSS VL: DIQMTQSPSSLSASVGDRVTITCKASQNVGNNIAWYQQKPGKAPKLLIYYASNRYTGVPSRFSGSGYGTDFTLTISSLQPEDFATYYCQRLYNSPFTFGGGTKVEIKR", "ng Ab/mL", 25]
]}
